SYSTEM_NAME: cannabinoid receptor 1 (CB1R, hCB1R) (Homo sapiens, UniProt P21554)
Sequence (P21554 whole entry): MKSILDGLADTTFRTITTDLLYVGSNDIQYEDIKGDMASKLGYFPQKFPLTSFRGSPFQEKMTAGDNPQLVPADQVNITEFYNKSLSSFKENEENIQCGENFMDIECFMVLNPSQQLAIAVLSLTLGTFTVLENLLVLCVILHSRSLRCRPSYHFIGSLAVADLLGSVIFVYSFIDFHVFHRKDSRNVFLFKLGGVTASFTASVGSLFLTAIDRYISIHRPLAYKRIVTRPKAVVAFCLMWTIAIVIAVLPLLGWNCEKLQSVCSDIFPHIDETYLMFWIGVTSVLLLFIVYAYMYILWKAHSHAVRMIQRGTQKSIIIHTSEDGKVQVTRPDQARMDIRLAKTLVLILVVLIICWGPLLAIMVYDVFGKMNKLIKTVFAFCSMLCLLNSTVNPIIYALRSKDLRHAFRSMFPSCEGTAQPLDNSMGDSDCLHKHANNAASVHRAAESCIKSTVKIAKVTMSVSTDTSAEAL
pKd: −log10 of the molar value.
Entries and their pKd values follow.

COMPOUND	SYSTEM_NAME	pKd
Cc1cc2c(s1)Nc1ccccc1N=C2N1CCN(C)CC1 [Olz, olanzapine]	cannabinoid receptor 1 (CB1R, hCB1R) (Homo sapiens, UniProt P21554)	8.60
CN1CCN(C2=Nc3cc(Cl)ccc3Nc3ccccc32)CC1 [Clz, clozapine]	cannabinoid receptor 1 (CB1R, hCB1R) (Homo sapiens, UniProt P21554)	8.58
